Every entry's value here was drawn from patent US20250099587A1.

Target: T1, recombinant, phycoerythrin (PE) labeled, BCMA extracellular domain-FC fusion protein (Homo sapiens (Human), UniProt Q02223 1-54, phycoerythrin (PE) label)
T1 construct: The whole entry is named here; only the extracellular domain stood in the assay; also called BCMA-PE; not shown: Fc part of the staining reagent
T1 sequence: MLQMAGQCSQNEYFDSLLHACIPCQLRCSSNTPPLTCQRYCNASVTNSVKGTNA
Assay: flow cytometry of transduced PBMCs stained with BCMA-PE (PE-labeled BCMA extracellular domain-Fc)
EXPERIMENTAL_READOUT: binding result

>>> measurement("anti-BCMA CAR of recombinant lentivirus LV 12 (SEQ ID NO: 276) (receptor) EVQLLESGGGLVQPGGSLRLSCAASGFTFEDYAMSWFRQAPGKEREGVSAISGKGGSTYYADSVKGRFTISRDNSKNTLYLQMNSLRAEDTAVYYCAVLDEEAGAEGGYWGQGTQVTVSSTTTPAPRPPTPAPTIASQPLSLRPEACRPAAGGAVHTRGLDFACDIYIWAPLAGTCGVLLLSLVITLYCKRGRKKLLYIFKQPFMRPVQTTQEEDGCSCRFPEEEEGGCELRVKFSRSADAPAYQQGQNQLYNELNLGRREEYDVLDKRRGRDPEMGGKPRRKNPQEGLYNELQKDKMAEAYSEIGMKGERRRGKGHDGLYQGLSTATKDTYDALHMQALPPR")
"binds"
>>> measurement("anti-BCMA CAR of recombinant lentivirus LV 10 (SEQ ID NO: 274) (receptor) EVQLLESGGGLVQPGGSLRLSCAASGFTFESEAMSWYRQAPGKERELVSVITSEGSTYYADSVKGRFTISRDNSKNTLYLQMNSLRAEDTAVYYCAHIEWETRLNWGQGTQVTVSSTTTPAPRPPTPAPTIASQPLSLRPEACRPAAGGAVHTRGLDFACDIYIWAPLAGTCGVLLLSLVITLYCKRGRKKLLYIFKQPFMRPVQTTQEEDGCSCRFPEEEEGGCELRVKFSRSADAPAYQQGQNQLYNELNLGRREEYDVLDKRRGRDPEMGGKPRRKNPQEGLYNELQKDKMAEAYSEIGMKGERRRGKGHDGLYQGLSTATKDTYDALHMQALPPR")
"binds"
